Readings of log2 ratio of Biotin-Ahx-Ub-VS probe labelling for the listed molecules
- assay.target: UniProt Q9P2H5
- Sequence (Q9P2H5 whole entry, the tested form may be a part): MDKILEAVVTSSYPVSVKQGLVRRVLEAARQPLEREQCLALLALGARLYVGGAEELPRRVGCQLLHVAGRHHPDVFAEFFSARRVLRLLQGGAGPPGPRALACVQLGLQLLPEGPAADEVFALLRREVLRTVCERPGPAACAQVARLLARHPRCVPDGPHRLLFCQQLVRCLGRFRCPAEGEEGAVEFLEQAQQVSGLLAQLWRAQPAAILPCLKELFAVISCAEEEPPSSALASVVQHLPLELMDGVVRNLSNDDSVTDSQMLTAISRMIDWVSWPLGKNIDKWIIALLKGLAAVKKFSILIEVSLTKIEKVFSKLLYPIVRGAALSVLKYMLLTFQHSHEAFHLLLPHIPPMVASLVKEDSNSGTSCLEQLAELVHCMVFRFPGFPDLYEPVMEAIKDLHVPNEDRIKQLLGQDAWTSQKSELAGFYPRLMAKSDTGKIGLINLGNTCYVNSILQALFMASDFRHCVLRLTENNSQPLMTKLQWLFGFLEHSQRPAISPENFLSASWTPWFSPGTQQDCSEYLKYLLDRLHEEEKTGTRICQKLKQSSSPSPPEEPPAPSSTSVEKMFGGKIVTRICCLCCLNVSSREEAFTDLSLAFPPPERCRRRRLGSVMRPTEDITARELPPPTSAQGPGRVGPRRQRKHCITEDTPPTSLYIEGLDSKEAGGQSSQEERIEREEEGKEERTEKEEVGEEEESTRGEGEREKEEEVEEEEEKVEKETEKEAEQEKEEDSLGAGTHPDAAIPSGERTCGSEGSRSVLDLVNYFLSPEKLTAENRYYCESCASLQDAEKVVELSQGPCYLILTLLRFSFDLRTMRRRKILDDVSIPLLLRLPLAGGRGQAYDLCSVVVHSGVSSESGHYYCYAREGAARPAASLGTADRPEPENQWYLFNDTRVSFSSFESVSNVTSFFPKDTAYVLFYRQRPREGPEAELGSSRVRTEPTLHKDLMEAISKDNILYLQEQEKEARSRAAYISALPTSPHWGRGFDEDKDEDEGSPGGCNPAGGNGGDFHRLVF
- assay.text: log2 ratio of Biotin-Ahx-Ub-VS probe labelling (fragment/DMSO); higher = less target engagement (more negative = stronger competition), active = hit call of the paper (q ≤ 0.05, log2 ratio ≤ -1)
- applied.conditions: compound concentration: 200 uM; treatment time: 3 h
assay.metric: log2 ratio of Biotin-Ahx-Ub-VS probe labelling

[[record]]
molecule = "O=C(CCl)NCCc1cccc2ccccc12"
observed = 0.0801

[[record]]
molecule = "O=C(CCl)N1CCCC2CCCCC21 (centres undefined)"
observed = -0.193

[[record]]
molecule = "Cl.O=C(CCl)NCc1ccnc(Oc2ccccc2F)c1"
observed = -0.188

[[record]]
molecule = "Cc1cccc2nc(CCNC(=O)CCl)cn12.Cl"
observed = -0.327

[[record]]
molecule = "Cc1ccn2cc(CNC(=O)CCl)nc2c1.Cl"
observed = -0.141

[[record]]
molecule = "CN(Cc1nc2ccccc2[nH]1)C(=O)CCl.Cl"
observed = 0.121

[[record]]
molecule = "CCN(C(=O)CCl)C1CCCCC1"
observed = -0.0524

[[record]]
molecule = "O=C(CCl)N1CCC(C(O)c2ccc(F)cc2)CC1 (centres undefined)"
observed = 0.167

[[record]]
molecule = "CN(C)S(=O)(=O)c1ccccc1CNC(=O)CCl"
observed = -0.0151

[[record]]
molecule = "CN(CCc1ncc(Br)cn1)C(=O)CCl.Cl"
observed = -0.437

[[record]]
molecule = "Cc1cc(C(=O)NC2CCN(C(=O)CCl)CC2)no1"
observed = 0.0224

[[record]]
molecule = "O=C(CCl)N1CCC(c2ccn[nH]2)C1 (centres undefined)"
observed = -0.282

[[record]]
molecule = "O=C(CCl)NC1CCC2(CC1)OCCO2"
observed = -0.399

[[record]]
molecule = "O=C(CCl)N(C1CCCC1)C1CCS(=O)(=O)C1 (centres undefined)"
observed = -0.386

[[record]]
molecule = "Cc1cccnc1NC(=O)C1CCN(C(=O)CCl)CC1.Cl"
observed = -0.348

[[record]]
molecule = "O=C(CCl)Nc1ccc2c(c1)OC(F)(F)O2"
observed = -0.115

[[record]]
molecule = "Cc1n[nH]c2c1CN(C(=O)CCl)CC2"
observed = -0.801

[[record]]
molecule = "Cc1ccc(-c2nnc(C)[nH]2)c(NC(=O)CCl)c1"
observed = 0.245

[[record]]
molecule = "CC(=O)C1CCCCN1C(=O)CCl (centres undefined)"
observed = -0.14

[[record]]
molecule = "Cl.O=C(CCl)N1CCn2cncc2C1"
observed = -0.128

[[record]]
molecule = "Cl.Cn1cnc2cc(CNC(=O)CCl)ccc21"
observed = -0.126

[[record]]
molecule = "CCN(Cc1ccc(C#N)cc1F)C(=O)CCl"
observed = -0.207

[[record]]
molecule = "O=C(CCl)N1CCCCC12CCOCC2"
observed = -0.444

[[record]]
molecule = "Cc1ccccc1CN(C)C(=O)CCl"
observed = -0.712

[[record]]
molecule = "O=C(CCl)N1CC=C(c2c[nH]c3ccccc23)CC1"
observed = -0.734

[[record]]
molecule = "CC1CCc2onc(CNC(=O)CCl)c2C1 (centres undefined)"
observed = -0.252

[[record]]
molecule = "C/C(=C\\CNC(=O)CCl)c1cnn(C)c1.Cl"
observed = -0.465

[[record]]
molecule = "O=C(CCl)N(Cc1ccsc1)C1CC1"
observed = 0.0505

[[record]]
molecule = "Cc1nc(CNC(=O)CCl)c2ccccn12.Cl"
observed = -0.818


---

- assay.target: USP36 (UniProt Q9P275)
- Sequence (whole entry): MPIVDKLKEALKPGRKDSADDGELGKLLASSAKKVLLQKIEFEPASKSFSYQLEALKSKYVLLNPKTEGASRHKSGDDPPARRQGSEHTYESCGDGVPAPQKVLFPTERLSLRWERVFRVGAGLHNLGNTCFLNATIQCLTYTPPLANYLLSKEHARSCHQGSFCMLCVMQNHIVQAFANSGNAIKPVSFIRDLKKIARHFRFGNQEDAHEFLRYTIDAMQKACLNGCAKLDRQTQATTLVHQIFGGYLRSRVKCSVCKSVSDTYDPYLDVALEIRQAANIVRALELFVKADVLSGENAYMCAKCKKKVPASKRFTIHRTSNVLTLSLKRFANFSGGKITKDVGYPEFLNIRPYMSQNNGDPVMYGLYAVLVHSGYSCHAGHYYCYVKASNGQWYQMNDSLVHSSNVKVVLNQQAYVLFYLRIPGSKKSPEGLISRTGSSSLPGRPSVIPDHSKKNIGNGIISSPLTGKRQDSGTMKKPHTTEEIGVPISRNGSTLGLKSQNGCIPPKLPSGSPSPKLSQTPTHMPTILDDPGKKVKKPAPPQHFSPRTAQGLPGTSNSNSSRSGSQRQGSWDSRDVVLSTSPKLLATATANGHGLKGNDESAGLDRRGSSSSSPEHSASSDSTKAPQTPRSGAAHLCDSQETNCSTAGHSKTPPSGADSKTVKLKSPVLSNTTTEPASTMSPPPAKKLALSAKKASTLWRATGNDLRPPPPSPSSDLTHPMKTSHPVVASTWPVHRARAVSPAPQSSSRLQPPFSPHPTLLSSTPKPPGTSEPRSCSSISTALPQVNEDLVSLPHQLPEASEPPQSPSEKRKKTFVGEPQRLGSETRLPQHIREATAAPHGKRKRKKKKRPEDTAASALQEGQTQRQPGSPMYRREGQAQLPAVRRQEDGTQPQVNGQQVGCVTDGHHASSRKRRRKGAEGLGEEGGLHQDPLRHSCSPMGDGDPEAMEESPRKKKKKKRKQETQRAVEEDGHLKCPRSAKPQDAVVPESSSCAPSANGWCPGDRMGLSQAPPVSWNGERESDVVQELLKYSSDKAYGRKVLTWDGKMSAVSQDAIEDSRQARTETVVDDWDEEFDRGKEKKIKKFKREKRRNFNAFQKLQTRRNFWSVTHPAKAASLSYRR
- assay.text: log2 ratio of Biotin-Ahx-Ub-VS probe labelling (fragment/DMSO); higher = less target engagement (more negative = stronger competition), active = hit call of the paper (q ≤ 0.05, log2 ratio ≤ -1)
- applied.conditions: compound concentration: 200 uM; treatment time: 3 h
Classify by log2 ratio of Biotin-Ahx-Ub-VS probe labelling. Ranges: low: < -0.1; intermediate: ≥ -0.1 and < -0.08; high: ≥ -0.08

[[record]]
compound = "O=C(CCl)Nc1ccc(F)cc1F"
class_assignment = "low"

[[record]]
compound = "Cc1cccc(NC(=O)[C@@H]2CCCN2C(=O)CCl)n1"
class_assignment = "intermediate"

[[record]]
compound = "O=C(CCl)Nc1ccc(F)cc1Cl"
class_assignment = "high"

[[record]]
compound = "CC1CN(c2ccc(NC(=O)CCl)cc2)CC(C)O1 (centres undefined)"
class_assignment = "low"

[[record]]
compound = "O=C(CCl)N1CCC(c2ccn[nH]2)C1 (centres undefined)"
class_assignment = "low"

[[record]]
compound = "CNC(=O)C1CCN(C(=O)CCl)CC1"
class_assignment = "intermediate"

[[record]]
compound = "CN1C(=O)c2ccc(NC(=O)CCl)cc2C1=O"
class_assignment = "high"

[[record]]
compound = "O=C(CCl)Nc1cc2c(cc1Cl)OCCCO2"
class_assignment = "low"

[[record]]
compound = "Cc1cc(CC(C)NC(=O)CCl)n[nH]1 (centres undefined)"
class_assignment = "high"

[[record]]
compound = "O=C(CCl)N[C@H]1CCS(=O)(=O)c2ccccc21"
class_assignment = "low"

[[record]]
compound = "O=C(CCl)N1CCN2C(=O)CCC2C1 (centres undefined)"
class_assignment = "high"


---

Readings of log2 ratio of Biotin-Ahx-Ub-VS probe labelling for the listed molecules
- assay.target: USP24 (UniProt Q9UPU5)
- Sequence (Q9UPU5 whole entry, the tested form may be a part): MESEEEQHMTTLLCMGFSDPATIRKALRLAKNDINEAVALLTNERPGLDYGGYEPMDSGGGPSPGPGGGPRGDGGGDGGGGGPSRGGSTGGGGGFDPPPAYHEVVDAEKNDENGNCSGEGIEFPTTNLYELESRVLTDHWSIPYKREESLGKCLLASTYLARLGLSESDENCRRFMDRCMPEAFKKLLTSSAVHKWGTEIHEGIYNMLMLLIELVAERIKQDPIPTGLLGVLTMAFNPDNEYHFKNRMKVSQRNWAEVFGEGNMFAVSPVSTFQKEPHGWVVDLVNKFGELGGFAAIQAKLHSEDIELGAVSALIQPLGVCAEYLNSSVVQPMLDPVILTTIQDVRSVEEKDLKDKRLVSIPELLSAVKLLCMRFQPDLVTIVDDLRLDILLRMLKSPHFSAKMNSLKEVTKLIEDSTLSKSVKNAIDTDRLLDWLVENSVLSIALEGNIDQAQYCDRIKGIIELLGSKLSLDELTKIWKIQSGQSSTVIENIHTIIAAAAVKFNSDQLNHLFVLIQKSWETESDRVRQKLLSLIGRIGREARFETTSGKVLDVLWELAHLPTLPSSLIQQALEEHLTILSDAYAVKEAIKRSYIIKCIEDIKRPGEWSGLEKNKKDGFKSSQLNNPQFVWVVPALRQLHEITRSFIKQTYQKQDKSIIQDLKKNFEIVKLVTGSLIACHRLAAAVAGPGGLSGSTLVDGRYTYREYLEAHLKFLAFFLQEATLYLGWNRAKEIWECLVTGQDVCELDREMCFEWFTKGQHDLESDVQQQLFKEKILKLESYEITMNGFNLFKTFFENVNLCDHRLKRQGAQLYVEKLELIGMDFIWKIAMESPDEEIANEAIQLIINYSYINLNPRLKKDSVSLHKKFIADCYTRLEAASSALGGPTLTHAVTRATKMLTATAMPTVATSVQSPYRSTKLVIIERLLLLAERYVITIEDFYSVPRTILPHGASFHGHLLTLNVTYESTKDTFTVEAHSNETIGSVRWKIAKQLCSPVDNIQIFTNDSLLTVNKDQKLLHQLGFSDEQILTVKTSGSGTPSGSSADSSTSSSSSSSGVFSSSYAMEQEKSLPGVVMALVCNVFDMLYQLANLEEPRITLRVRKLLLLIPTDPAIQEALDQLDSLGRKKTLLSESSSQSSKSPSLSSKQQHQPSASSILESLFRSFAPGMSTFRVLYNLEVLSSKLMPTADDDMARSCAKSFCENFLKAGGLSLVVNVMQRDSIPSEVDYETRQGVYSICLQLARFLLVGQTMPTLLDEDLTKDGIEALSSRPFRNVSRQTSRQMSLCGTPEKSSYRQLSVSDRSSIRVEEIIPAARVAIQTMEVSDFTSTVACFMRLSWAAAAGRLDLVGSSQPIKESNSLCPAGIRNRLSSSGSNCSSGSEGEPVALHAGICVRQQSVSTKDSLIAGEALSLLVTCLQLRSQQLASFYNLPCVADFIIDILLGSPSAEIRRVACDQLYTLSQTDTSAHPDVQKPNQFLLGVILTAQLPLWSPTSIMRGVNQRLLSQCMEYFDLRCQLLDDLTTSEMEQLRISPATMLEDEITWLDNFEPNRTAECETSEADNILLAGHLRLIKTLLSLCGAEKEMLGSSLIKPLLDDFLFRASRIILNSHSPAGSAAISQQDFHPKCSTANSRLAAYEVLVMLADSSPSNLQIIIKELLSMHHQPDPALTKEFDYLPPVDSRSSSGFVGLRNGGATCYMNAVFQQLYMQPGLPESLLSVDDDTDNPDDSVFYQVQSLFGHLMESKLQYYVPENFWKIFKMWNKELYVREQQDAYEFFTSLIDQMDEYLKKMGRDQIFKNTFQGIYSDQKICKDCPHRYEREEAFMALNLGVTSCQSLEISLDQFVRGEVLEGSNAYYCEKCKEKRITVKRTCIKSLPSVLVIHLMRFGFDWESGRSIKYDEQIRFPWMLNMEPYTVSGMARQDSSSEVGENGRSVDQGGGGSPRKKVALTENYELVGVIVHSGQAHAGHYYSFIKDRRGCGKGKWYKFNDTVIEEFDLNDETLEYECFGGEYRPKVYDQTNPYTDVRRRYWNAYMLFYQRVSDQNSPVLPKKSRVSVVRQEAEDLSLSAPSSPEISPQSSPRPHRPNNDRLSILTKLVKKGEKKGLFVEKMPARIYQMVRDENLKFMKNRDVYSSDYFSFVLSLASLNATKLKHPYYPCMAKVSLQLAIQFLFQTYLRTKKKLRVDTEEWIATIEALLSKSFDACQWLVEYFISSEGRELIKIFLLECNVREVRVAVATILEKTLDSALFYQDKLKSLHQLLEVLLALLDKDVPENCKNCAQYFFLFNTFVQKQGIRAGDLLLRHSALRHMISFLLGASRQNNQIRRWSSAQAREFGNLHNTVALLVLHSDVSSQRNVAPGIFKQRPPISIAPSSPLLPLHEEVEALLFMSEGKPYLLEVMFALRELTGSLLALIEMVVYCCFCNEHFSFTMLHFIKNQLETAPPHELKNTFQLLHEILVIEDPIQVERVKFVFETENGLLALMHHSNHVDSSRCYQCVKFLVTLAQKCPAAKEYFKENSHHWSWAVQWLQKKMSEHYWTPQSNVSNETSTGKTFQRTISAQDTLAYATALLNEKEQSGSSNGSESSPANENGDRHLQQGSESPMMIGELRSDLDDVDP
- assay.text: log2 ratio of Biotin-Ahx-Ub-VS probe labelling (fragment/DMSO); higher = less target engagement (more negative = stronger competition), active = hit call of the paper (q ≤ 0.05, log2 ratio ≤ -1)
- applied.conditions: compound concentration: 200 uM; treatment time: 3 h
assay.metric: log2 ratio of Biotin-Ahx-Ub-VS probe labelling

[[record]]
molecule = "NC(=O)C1CCCCN1C(=O)CCl (centres undefined)"
observed = -0.241

[[record]]
molecule = "O=C(CCl)N1CC2(CCOCC2)C1"
observed = -0.194

[[record]]
molecule = "N#Cc1ccc(CNC(=O)CCl)cc1"
observed = -0.183

[[record]]
molecule = "Cc1cccc2nc(CCNC(=O)CCl)cn12.Cl"
observed = -0.429

[[record]]
molecule = "Cc1ccc(N(C(=O)CCl)C2C=CS(=O)(=O)C2)cc1 (centres undefined)"
observed = -0.681

[[record]]
molecule = "Cl.Cn1ncc2c1CC(NC(=O)CCl)CC2 (centres undefined)"
observed = 0.0406

[[record]]
molecule = "CN(C)C(=O)c1ccc(NC(=O)CCl)cc1"
observed = -0.00912

[[record]]
molecule = "O=C(CCl)NC1(c2ccc3c(c2)OCCO3)CCCC1"
observed = -0.451

[[record]]
molecule = "Cc1ccc(-c2nnc(C)[nH]2)c(NC(=O)CCl)c1"
observed = -0.204

[[record]]
molecule = "Cc1ccccc1C1(CNC(=O)CCl)CCOCC1"
observed = -0.178

[[record]]
molecule = "O=C(CCl)N1CCOC2(CCC2)C1"
observed = -0.0132

[[record]]
molecule = "CN(CCC(O)c1ccc(Br)cc1)C(=O)CCl (centres undefined)"
observed = -0.901

[[record]]
molecule = "Cc1c(C#N)c(NC(=O)CCl)n(Cc2ccco2)c1C"
observed = -0.837

[[record]]
molecule = "O=C(CCl)Nc1ccc(N2CCCC2=O)cc1"
observed = -0.284

